The reader will find reported % inhibition at 10 nM values listed item by item below.
- testedTarget: human plasma kallikrein (human, UniProt P03952 20-390; P03952 391-638)
- Sequence (P03952 20-390, chain 1 of 2): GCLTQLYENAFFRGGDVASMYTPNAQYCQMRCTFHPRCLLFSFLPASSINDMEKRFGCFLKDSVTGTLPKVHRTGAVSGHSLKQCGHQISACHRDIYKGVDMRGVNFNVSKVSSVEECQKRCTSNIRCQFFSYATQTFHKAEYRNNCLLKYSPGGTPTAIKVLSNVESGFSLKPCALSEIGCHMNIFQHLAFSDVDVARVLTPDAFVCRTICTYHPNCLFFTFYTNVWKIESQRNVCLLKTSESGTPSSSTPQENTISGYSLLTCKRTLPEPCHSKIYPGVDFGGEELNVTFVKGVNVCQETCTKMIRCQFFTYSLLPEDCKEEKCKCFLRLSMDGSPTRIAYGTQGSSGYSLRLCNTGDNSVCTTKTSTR
- Sequence (P03952 391-638, chain 2 of 2): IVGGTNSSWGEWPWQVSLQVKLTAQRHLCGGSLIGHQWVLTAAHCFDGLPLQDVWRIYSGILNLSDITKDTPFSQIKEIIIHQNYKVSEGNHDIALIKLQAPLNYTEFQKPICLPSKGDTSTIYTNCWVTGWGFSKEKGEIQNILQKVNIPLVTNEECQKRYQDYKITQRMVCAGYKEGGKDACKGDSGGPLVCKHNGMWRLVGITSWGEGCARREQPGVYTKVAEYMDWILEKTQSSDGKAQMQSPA
- measurementProtocol: cell-based or functional assay
Quick note: give the figure in %, leave out the unit.

A selection of reference data follows.
- binder: "M201-A06 (Fab, V domains shown) VH: EVQLLESGGGLVQPGGSLRLSCAASGFTFSHYIMMWVRQAPGKGLEWVSGIYSSGGITVYADSVKGRFTISRDNSKNTLYLQMNSLRAEDTAVYYCAYRRTGIPRRDVFDIWGQGTMVTVSS VL: DIQMTQSPSTLSASVGDRVTITCRASQSISSWLAWYQQKPGKAPNLLIYKASTLESGVPSRFSGSGSGTEFTLTISSLQPDDFATYYCQQYNTYWTFGQGTKVEIK"
  observedMeasurement: 36.8
- binder: "M202-A01 (Fab, V domains shown) VH: EVQLLESGGGLVQPGGSLRLSCAASGFTFSHYIMMWVRQAPGKGLEWVSGIYSSGGITVYADSVKGRFTISRDNSKNTLYLQMNSLRAEDTAVYYCAYRRIGVPRRDAFDIWGQGTMVTVSS VL: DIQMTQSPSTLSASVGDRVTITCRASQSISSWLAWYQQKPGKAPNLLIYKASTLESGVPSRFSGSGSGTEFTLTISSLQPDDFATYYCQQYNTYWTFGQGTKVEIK"
  observedMeasurement: 88.9

Now look at this entry.
What value of % inhibition at 10 nM has been recorded for this entry: M198-D12 (Fab, V domains shown, Tested as Fab; printed HC runs into CH1) VH: EVQLLESGGGLVQPGGSLRLSCAASGFTFSLYVMYWVRQAPGKGLEWVSYIVPSGGPTAYADSVKGRFTISRDNSKNTLYLQMNSLRAEDTAVYYCAYRRTGIPRRDAFDIWGQGTMVTVSS VL: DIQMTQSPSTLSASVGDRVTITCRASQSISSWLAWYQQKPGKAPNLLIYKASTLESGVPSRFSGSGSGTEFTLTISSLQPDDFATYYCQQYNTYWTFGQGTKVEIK
63.5
